- systemUnderTest: T1, CD40hfc (R&Dsystems, USA) (UniProt P25942 21-193)
- T1 construct: Bought reagent; also called immobilized CD40 receptor; target; not shown: Fc part ('hfc') of the bought fusion
- T1 sequence (P25942 21-193 limits assumed): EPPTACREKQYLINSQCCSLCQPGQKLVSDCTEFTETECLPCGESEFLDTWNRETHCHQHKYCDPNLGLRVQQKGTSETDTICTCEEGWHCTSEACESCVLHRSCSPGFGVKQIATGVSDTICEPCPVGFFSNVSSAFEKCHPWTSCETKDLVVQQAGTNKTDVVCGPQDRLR
- assayNotes: SPR (Biacore 3000), CD40hfc amine-coupled on chip, antibody as analyte, 37 C, pH 7.3
- Procedure: The affinity measures of purified antibodies by surface plasmon resonance using the Biacore 3000 instrument was performed according to manufacturer's protocols. The CD40hfc (R&Dsystems, USA) was immobilized to the BIAcore sensorchip, CMS, using conventional amine coupling. The anti-CD40 antibodies of the invention, (serially diluted 1/3 from 1-0.012 nM) were analysed for binding in HBS-P (GE, BR-1003-68) at a flow rate of 30 μl/min at 37° C. and pH 7.3. […]
Labelling: koff reported below 0.0001 s⁻¹ becomes 1; at or above becomes 0.

| binder | className |
| --- | --- |
| Antibody B44 (antibody, V domains shown, Parent agonistic anti-CD40 antibody from the n-CoDeR library; Run alongside the IgG clones as 'B44 antibody' and detected with anti-human Ig on RAMOS cells; also called B44 antibody; original anti-CD40 antibody) VH: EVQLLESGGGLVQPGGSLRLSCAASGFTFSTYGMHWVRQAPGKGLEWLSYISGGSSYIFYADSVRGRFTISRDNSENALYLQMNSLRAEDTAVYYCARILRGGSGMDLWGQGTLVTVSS VL: QSVLTQPPSASGTPGQRVTISCTGSSSNIGAGYDVYWYQQLPGTAPKLLIYGNINRPSGVPDRFSGSKSGTSASLAISGLRSEDEADYYCAAWDDSLSGLVFGGGTKLTVLG | 0 |
| Antibody clone B9 (antibody, human IgG1, lambda, V domains shown) VH: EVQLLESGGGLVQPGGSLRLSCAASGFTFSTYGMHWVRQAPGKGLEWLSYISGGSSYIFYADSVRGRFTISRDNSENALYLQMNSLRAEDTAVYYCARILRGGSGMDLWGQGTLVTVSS VL: QSVLTQPPSASGTPGQRVTISCTGSSSNIGAGYNVYWYQQLPGTAPKLLIYGNINRPSGVPDRFSGSKSGTSASLAISGLRSEDEADYYCAAWDGGLLGLVFGGGTKLTVLG | 0 |
| Antibody clone A4 (antibody, human IgG1, lambda, V domains shown, Tested as purified antibody; full chains are assembled here from VH/VL plus these; also called A4 ANTI-CD40 ANTIBODY) VH: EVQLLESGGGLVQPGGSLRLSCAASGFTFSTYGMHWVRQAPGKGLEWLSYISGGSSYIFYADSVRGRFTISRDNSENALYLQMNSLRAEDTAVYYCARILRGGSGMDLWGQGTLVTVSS VL: QSVLTQPPSASGTPGQRVTISCTGSTSNIGAGYKVYWYQQLPGTAPKLLIYGNINRPSGVPDRFSGSKSGTSASLAISGLRSEDEADYYCAAWDDSLSGLVFGGGTKLTVLG | 1 |
| Antibody clone H11 (antibody, human IgG1, lambda, V domains shown, also called H11 ANTI-CD40 ANTIBODY) VH: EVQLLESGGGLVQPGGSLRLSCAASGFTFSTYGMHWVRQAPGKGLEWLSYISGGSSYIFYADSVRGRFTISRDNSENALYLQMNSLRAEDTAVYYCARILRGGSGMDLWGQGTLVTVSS VL: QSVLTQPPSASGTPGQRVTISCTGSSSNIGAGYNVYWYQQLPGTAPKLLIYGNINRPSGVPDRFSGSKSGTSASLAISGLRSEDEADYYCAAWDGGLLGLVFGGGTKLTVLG | 0 |
| Antibody clone A5 (antibody, human IgG1, lambda, V domains shown) VH: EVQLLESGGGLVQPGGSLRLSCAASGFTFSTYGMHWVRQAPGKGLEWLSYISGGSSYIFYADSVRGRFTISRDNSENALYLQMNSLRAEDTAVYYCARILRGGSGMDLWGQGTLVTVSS VL: QSVLTQPPSASGTPGQRVTISCTGSSSNIGAGYHVYWYQQLPGTAPKLLIYGSINRPSGVPDRFSGSKSGTSGSLAISGLRSEDEADYYCAAWDSSSSGLVFGGGTKLTVLG | 1 |
